B1: FEM1B (parent)
chain: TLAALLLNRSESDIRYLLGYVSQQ

Variants of: B1
test_details: protein stability index of a GFP-peptide fusion (GPS, HEK-293T) (PSI 1-6); higher = more stable;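 also: lentivirally expressed fusions sorted by FACS into six bins by GFP to DsRed ratio, PSI derived from sequencing read proportions per bin multiplied by bin number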
condition: c terminus: a fixed tail appended
Class key for protein stability index values: group A: < 2; group B: ≥ 2 and < 3; group C: ≥ 3

Reference set (4 entries):
> print(dat)
   mutant.name  group.label
1         I14H      group C
2         Q23D      group B
3          L2S      group A
4          R9V      group B

## Input Input `S10H` ; output its category
## Output group C

## Input Input `L18N` ; output its category
## Output group A

## Input Input `L7K` ; output its category
## Output group B

## Input Input `S12E` ; output its category
## Output group C

## Input Input `N8M` ; output its category
## Output group C

## Input Input `A3G` ; output its category
## Output group B

## Input Input `G19L` ; output its category
## Output group B

## Input Input `L6D` ; output its category
## Output group B

## Input Input `L2D` ; output its category
## Output group B

## Input Input `L7Y` ; output its category
## Output group A

## Input Input `R15V` ; output its category
## Output group A

## Input Input `G19S` ; output its category
## Output group B

## Input Input `L17H` ; output its category
## Output group A

## Input Input `R9S` ; output its category
## Output group B

## Input Input `R15K` ; output its category
## Output group B

## Input Input `Q23N` ; output its category
## Output group A

## Input Input `L17S` ; output its category
## Output group A
